system: MCF7; assay: Cytotoxicity against human MCF7 cells assessed as surviving fraction at 25 uM after 48 hrs by SRB assay relative to control; type: functional
quantityMeasured: Ratio

>  <compoundStructureString>
O=C1Nc2ccc(Cl)cc2/C1=N/N=C/c1ccc[nH]1

>  <reportedResult>
0.392

$$$$
>  <compoundStructureString>
O=C1Nc2ccc(Cl)cc2/C1=N/N=C/c1cccs1

>  <reportedResult>
0.31

$$$$
>  <compoundStructureString>
Cc1ccc2c(c1)/C(=N/N=C/c1ccc[nH]1)C(=O)N2

>  <reportedResult>
0.351

$$$$
>  <compoundStructureString>
O=C1Nc2ccccc2/C1=N/N=C/c1cccs1

>  <reportedResult>
0.602

$$$$
>  <compoundStructureString>
Cc1ccc2c(c1)/C(=N/N=C/c1ccco1)C(=O)N2

>  <reportedResult>
0.213

$$$$
>  <compoundStructureString>
Cc1ccc2c(c1)/C(=N/N=C/c1cccs1)C(=O)N2

>  <reportedResult>
0.132

$$$$
>  <compoundStructureString>
O=C1Nc2ccccc2/C1=N/N=C/c1ccco1

>  <reportedResult>
0.306

$$$$
>  <compoundStructureString>
COc1cccc2c1C(=O)c1c(O)c3c(c(O)c1C2=O)C[C@@](O)(C(=O)CO)C[C@@H]3O[C@H]1C[C@H](N)[C@H](O)[C@H](C)O1

>  <reportedResult>
0.158

$$$$
>  <compoundStructureString>
O=C1Nc2ccccc2/C1=N/N=C/c1ccc[nH]1

>  <reportedResult>
0.328

$$$$
>  <compoundStructureString>
O=C1Nc2ccc(F)cc2/C1=N/N=C/c1cccs1

>  <reportedResult>
0.505

$$$$
>  <compoundStructureString>
O=C1Nc2ccc(F)cc2/C1=N/N=C/c1ccc[nH]1

>  <reportedResult>
0.274

$$$$
>  <compoundStructureString>
O=C1Nc2ccc(F)cc2/C1=N/N=C/c1ccco1

>  <reportedResult>
0.429

$$$$
>  <compoundStructureString>
O=C1Nc2ccc(Cl)cc2/C1=N/N=C/c1ccco1

>  <reportedResult>
0.274

$$$$
